Molecular target: NusA-SKK (Escherichia coli, UniProt P0AFF6 132-348)
Sequence (P0AFF6 132-348): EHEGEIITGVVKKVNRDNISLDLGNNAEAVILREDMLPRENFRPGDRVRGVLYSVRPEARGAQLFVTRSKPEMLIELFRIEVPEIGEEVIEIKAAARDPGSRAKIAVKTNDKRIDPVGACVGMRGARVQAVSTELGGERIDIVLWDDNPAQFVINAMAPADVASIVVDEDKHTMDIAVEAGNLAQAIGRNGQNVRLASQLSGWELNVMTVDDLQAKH
Assay: fluorescence anisotropy

- BINDER: "CGCUCUUACACAUUCCA (ssRNA) [nutR boxA-spacer]"
  Kd: "126 µM"
- BINDER: "CGCUAUUACACAUUCCA (ssRNA) [nutR boxA16-spacer]"
  Kd: "106 µM"
- BINDER: "CUCUCUUACACAUUCCA (ssRNA) [nutR boxA5-spacer]"
  Kd: "124 µM"
